The values you see were collected from the supplement of paper PMC10567573.

B1: TRIM35 (parent)
chain: DKELLCCSCQADPRHQGHRVQPVK

variants of: B1; test: protein stability index of a GFP-peptide fusion (GPS, HEK-293T) (PSI 1-6); higher = more stable; settings: c terminus: a fixed tail appended;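 note: lentivirally expressed fusions sorted by FACS into six bins by GFP to DsRed ratio, PSI derived from sequencing read proportions per bin multiplied by bin number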
RECORDED METRIC: protein stability index
# respond with the number and nothing more

Worked set:
DKELLCCSCQADTRHQGHRVQPVK [P13T] = 3.34
DKELLCCSCQADSRHQGHRVQPVK [P13S] = 1.97
DKELLCDSCQADPRHQGHRVQPVK [C7D] = 4.67
DKELLCCSCQADPRHPGHRVQPVK [Q16P] = 3.66
DKELLCCSCQADVRHQGHRVQPVK [P13V] = 2.8

// below: protein stability index requested for another variant
Problem: Let me know recorded protein stability index for DKELLCCSCQADPRCQGHRVQPVK [H15C] , thanks.
Solution: 4.26
